Hello, the source for this data is PubChem BioAssay (NCI), in case you need it.

tested on: SK-OV-3 ovarian; assay: NCI tumour cell line growth inhibition, 48 h
Observation type: TGI

Below, each entry is followed by its recorded TGI result.
[[record]]
compound = "CCCc1cc(=O)oc2c(C=O)c(O)cc(O)c12"
target_or_test_system = "SK-OV-3 ovarian"
result = "86.9 µM"

[[record]]
compound = "Cc1n[n+](CC(=O)c2ccccc2)c2sc(N)nn12"
target_or_test_system = "SK-OV-3 ovarian"
result = "> 100 µM"

[[record]]
compound = "Cc1ccc2nc(N/N=C/c3ccc(C)s3)cc(C)c2c1"
target_or_test_system = "SK-OV-3 ovarian"
result = "32.7 µM"


Query block: For C#CCSc1n[nH]c(-c2ccco2)n1 , what is its reported TGI?
Result block: > 100 µM

Query block: Field entry: C=CC(CBr)CCC(Br)C(C)(C)Br (stereo unspecified)
Result block: > 10 µM

Query block: Field entry: C=CC(=O)N1C/C(=C\c2ccccc2)C(=O)/C(=C/c2ccccc2)C1
Result block: 7.58 µM
